Biological target: T1, ITGA2 protein on the surface of human tumor cells (human, UniProt P17301 30-1181)
T1 sequence (looked up): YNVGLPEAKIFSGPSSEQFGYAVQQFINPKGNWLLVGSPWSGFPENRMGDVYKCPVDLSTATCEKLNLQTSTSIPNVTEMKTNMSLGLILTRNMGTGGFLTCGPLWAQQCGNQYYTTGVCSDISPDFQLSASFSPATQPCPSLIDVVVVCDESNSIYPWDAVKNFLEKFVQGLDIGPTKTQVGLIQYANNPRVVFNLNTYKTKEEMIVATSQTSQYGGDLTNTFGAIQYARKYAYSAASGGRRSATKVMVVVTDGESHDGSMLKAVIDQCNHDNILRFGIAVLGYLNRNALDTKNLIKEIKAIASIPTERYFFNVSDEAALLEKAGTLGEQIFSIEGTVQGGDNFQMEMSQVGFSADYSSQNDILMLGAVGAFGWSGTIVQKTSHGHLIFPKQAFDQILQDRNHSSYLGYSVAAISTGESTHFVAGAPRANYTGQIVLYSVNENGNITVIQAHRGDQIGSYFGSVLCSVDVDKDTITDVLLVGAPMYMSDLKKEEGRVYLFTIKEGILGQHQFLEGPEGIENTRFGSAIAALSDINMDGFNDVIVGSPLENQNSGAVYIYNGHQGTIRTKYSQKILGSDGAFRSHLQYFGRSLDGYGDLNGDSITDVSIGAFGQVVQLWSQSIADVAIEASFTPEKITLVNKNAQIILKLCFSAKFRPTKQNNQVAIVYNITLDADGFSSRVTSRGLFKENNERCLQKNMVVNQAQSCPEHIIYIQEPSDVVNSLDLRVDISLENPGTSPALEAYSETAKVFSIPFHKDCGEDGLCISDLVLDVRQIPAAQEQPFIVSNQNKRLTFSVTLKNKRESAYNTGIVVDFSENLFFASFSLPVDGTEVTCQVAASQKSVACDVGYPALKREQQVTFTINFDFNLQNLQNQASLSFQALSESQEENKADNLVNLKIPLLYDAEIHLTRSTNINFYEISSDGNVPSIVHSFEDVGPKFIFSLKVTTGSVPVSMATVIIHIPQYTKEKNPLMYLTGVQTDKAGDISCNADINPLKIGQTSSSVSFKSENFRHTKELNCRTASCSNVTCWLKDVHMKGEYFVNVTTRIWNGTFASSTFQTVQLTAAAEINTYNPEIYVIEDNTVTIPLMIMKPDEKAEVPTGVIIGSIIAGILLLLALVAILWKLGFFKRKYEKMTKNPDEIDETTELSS
Assay: cell-based or functional assay
reported_property: A431 cell killing IC50 (nM)
Could you give me the number in nM? Just the number is fine.

Reported A431 cell killing IC50 for FS002-A226-H3L4-vcMMAE (antibody, human IgG1, kappa, V domains shown, vc-MMAE, attachment residues not stated; vc-MMAE (mc-vc-PAB-MMAE) conjugated after TCEP reduction, DAR 3.8 per antibody; attachment residues not stated) VH: QLQLVQSGAEVKKPGASVKVSCKASGYTFTDYEIHWVRQAPGQGLEWIGAIDPETGGTNYNQKFNDRVTLTADTSISTAYMELSRLRSDDTAVYYCSRSGYYVSNYESYAMDYWGQGTTVTVSS VL: DIQLTQSPSSLSASVGDRVTITCRASQDIKSYLSWYQQKPGKAPKLLIYDTSNLASGVPSRFSGSGSGTDFTLTISSLQPEDFATYYCQQWSSYPFTFGGGTKLEIKR : what is it?
0.063
